- experimental_target: human GPR40 (Homo sapiens)
- Sequence (O14842 whole entry): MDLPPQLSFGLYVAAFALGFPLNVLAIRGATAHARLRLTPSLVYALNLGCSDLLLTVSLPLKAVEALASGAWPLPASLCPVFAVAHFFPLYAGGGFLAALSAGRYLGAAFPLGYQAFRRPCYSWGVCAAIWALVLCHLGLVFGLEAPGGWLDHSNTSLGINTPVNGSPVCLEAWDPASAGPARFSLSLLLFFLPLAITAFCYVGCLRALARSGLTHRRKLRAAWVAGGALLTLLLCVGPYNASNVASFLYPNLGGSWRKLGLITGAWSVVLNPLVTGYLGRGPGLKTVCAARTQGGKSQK
- test_name: Inositol Phosphate Turnover (IP1) Assay 2
- Type: cell-based
- Design: expressed in transfected cells
- condition_info: HEK cells stably expressing human GPR40, Table 2, read-out: Human IP1
pEC50: −log10 of the molar value.
recorded_metric: pEC50

| compound | reported |
| --- | --- |
| C[C@H](C(=O)O)[C@H](c1ccc2c(c1)OC(c1ccc(-c3cc(O)ccc3F)cc1)CC2)C1CC1 (single isomer, unassigned) [Example 67] | 7.68 |
| COc1ccc(F)c(-c2cnc(C3CCc4ccc([C@H](C5CC5)[C@H](C)C(=O)O)cc4O3)cc2OC)c1 (single isomer, unassigned) [Example 108b] | 8.24 |
| COc1ccc(F)c(-c2ccc(C3CCc4ccc([C@@H](CC(=O)O)C5CC5)cc4O3)c(F)c2)c1 (mixture of isomers) | 8.19 |
| COc1ccc(F)c(-c2cnc(C3CCc4ccc([C@H](C5CC5)[C@H](C)C(=O)O)cc4O3)c(C)c2)c1 (single isomer, unassigned) [Example 115a] | 8.38 |
| COc1cc(-c2ccc(C3CCc4ccc([C@H](C5CC5)[C@H](C)C(=O)O)cc4O3)c(F)c2)c(F)cn1 (single isomer, unassigned) [Example 109a] | 9.77 |
| COc1ccc(F)c(-c2ccc(C3CCc4ccc([C@@H](CC(=O)O)C5CC5)cc4O3)cc2)c1 (stereo partly drawn) [Example 60] | 7.60 |
| COc1ccc(F)c(-c2ccc(C3CCc4ccc([C@H](CC(=O)O)C5CCC5)cc4O3)cc2)c1 (single isomer, unassigned) | 6.40 |
| CN1CCOc2cc(-c3ccc(C4CCc5ccc([C@@H](CC(=O)O)C6CC6)cc5O4)c(F)c3)ccc21 (mixture of isomers) | 5.86 |
| COc1ccc(F)c(-c2ccc(C3CCc4ccc([C@H](C5CC5)[C@@H](C)C(=O)O)cc4O3)cc2)c1 (single isomer, unassigned) [Example 66] | 7.28 |
| COc1ccc(F)c(-c2ccc(C3CCc4ccc([C@H](C5CC5)[C@H](C)C(=O)O)cc4O3)nc2C(OC)C(C)(C)C)c1 (single isomer, unassigned) [Example 135c] | 8.55 |
| COc1cc(-c2ccc(C3CCc4ccc([C@H](C5CC5)[C@H](C)C(=O)O)cc4O3)nc2)c(F)cn1 (single isomer, unassigned) [Example 112a] | 9.77 |
| COc1ccc(F)c(-c2cnc(C3CCc4ccc([C@H](C5CC5)[C@H](C)C(=O)O)cc4O3)cc2OC)c1 (single isomer, unassigned) [Example 108a] | 6.58 |
| COc1cc(F)cc(-c2ccc(C3CCc4ccc([C@@H](CC(=O)O)C5CC5)cc4O3)cc2)c1 (stereo partly drawn) | 6.94 |
| COc1ccc(F)c(-c2ccc([C@H]3CCc4ccc([C@H](C5CC5)[C@H](C)C(=O)O)cc4O3)cc2)c1 (single isomer, unassigned) | 8.96 |
| COc1ccc(F)c(-c2ccc(C3CCc4ccc([C@H](C5CC5)[C@H](C)C(=O)O)cc4O3)nc2)c1 (single isomer, unassigned) [Example 97c] | 8.54 |
| O=C(O)C[C@H](c1ccc2c(c1)OC(c1ccc(-c3cccc(OCC(F)(F)F)c3)cc1)CC2)C1CC1 (stereo partly drawn) | 5.92 |
| COc1ccc(F)c(-c2ccc(C3CCc4ccc(C(C)C(C)C(=O)O)cc4O3)cc2)c1 (single isomer, unassigned) [Example 142] | 7.89 |
| COc1ccc(F)c(-c2ccc(C3CCc4ccc([C@H](C5CC5)[C@H](C)C(=O)O)cc4O3)nc2N2CCC2)c1 (mixture of isomers) | 7.74 |
| COc1ccc(F)c(-c2ccc(C3CCc4ccc([C@@H](CC(=O)O)C5CC5)cc4O3)cc2C(OC)C(F)(F)F)c1 (mixture of isomers) | 7.38 |
| COc1ccc(F)c(-c2ccc(C3CCc4ccc([C@@H](CC(=O)O)C5CC5)cc4O3)cc2C(OC)C(C)(C)C)c1 (single isomer, unassigned) [Example 125b] | 8.07 |
| COc1ccc(F)c(-c2ccc(C3CCc4ccc([C@@H](CC(=O)O)C5CC5)cc4O3)cn2)c1 (single isomer, unassigned) [Example 122b] | 6.61 |
| COc1cc(-c2ccc(C3CCc4ccc([C@H](C5CC5)[C@H](C)C(=O)O)cc4O3)nc2)c(F)cn1 (single isomer, unassigned) [Example 112b] | 9.04 |
| COc1ccc(F)c(-c2ccc(C3CCc4ccc([C@@H](CC(=O)O)C5CC5)cc4O3)cc2C(OC)C2CC2)c1 (mixture of isomers) | 7.85 |
| COc1cc(-c2ccc(C3CCc4ccc([C@@H](CC(=O)O)C5CC5)cc4O3)cc2)c(F)cn1 (stereo partly drawn) | 7.96 |

* * *

- experimental_target: human GPR40 (Homo sapiens)
- test_name: FLIPR assay (agonist-induced calcium mobilization)
- condition_info: Human FLIPR EC50, nM or % activation (EC50 values), GPR40/CHO NFAT BLA cells
Each item that follows carries a reported EC50.
recorded_metric: EC50 (nM)

| molecule | unit_symbol | reported |
| --- | --- | --- |
| Cc1cccc(C)c1-c1cccc(C2CCc3cc(C(CC(=O)O)C4CC4)ccc3O2)c1 (mixture of isomers) [Example 43] | nM | 2040 |
| CC#C[C@@H](CC(=O)O)c1ccc2c(c1)CCC(c1cccc(-c3c(C)noc3C)c1)O2 (single isomer, unassigned) [Example 40] | nM | 255 |
| CC#CC(CC(=O)O)c1ccc2c(c1)OC(c1ccc(-c3c(C)cccc3C)cc1)CC2 (single isomer, unassigned) [Example 54] | nM | 1090 |
| CC#C[C@@H](CC(=O)O)c1ccc2c(c1)CCC(c1cccc(-c3cccc4c3c(C(F)(F)F)nn4C)c1)O2 (single isomer, unassigned) [Example 42] | nM | 74 |
| CC#C[C@@H](CC(=O)O)c1ccc2c(c1)CCC(c1cc(-c3cccnc3C(F)(F)F)ccc1F)O2 (mixture of isomers) [Example 31] | nM | 95 |
| Cc1cccc(C)c1-c1cccc(C2CCc3cc(-c4cc(=O)[nH][s+]4[O-])ccc3O2)c1 (stereo not shown) [Example 9] | nM | 1920 |
| CC#CC(CC(=O)O)c1ccc2c(c1)CCC(c1cccc(Oc3ccc(C#N)cc3)c1)O2 (mixture of isomers) [Example 23] | nM | 40 |

* * *

Listed compounds paired with reported EC50
- experimental_target: UniProt:O14842
- test_name: FLIPR assay (agonist-induced calcium mobilization)
- condition_info: Human FLIPR EC50, nM or % activation (EC50 values), GPR40/CHO NFAT BLA cells

| compound | unit_symbol | EC50 |
| --- | --- | --- |
| Cc1cccc(C)c1-c1ccc(F)c(C2CCc3cc(CCC(=O)O)ccc3O2)n1 (racemic) | nM | 292 |
| CC#C[C@@H](CC(=O)O)c1ccc2c(c1)CCC(c1cc(-c3ccc(C(F)(F)F)cc3)ccc1F)O2 (mixture of isomers) | nM | 162 |
| CC#C[C@@H](CC(=O)O)c1ccc2c(c1)CCC(c1ccc(-c3cc(OC)ccc3F)cc1)O2 (mixture of isomers) | nM | 105 |
| CC#C[C@@H](CC(=O)O)c1ccc2c(c1)CCC(c1cccc(-c3cccc4c3c(C(F)(F)F)nn4C)c1)O2 (single isomer, unassigned) [Example 41] | nM | 64 |
| CC#CC(CC(=O)O)c1ccc2c(c1)CCC(c1nc(-c3c(C)cccc3C)ccc1F)O2 (mixture of isomers) | nM | 76 |
| CC#CC(CC(=O)O)c1ccc2c(c1)CCC(c1ccc(C(F)(F)F)c(Cl)c1)O2 (mixture of isomers) | nM | 1540 |
| Cc1cccc(C)c1-c1cccc(C2CCc3cc(CCC(=O)O)ccc3O2)c1 (single isomer, unassigned) [Example 4] | nM | 38 |
| CC#C[C@@H](CC(=O)O)c1ccc2c(c1)CCC(c1cc(-c3cccnc3C(F)(F)F)ccc1F)O2 (single isomer, unassigned) [Example 35] | nM | 37 |
| CC#C[C@@H](CC(=O)O)c1ccc2c(c1)CCC(c1cc(-c3c(C)cccc3C)ccc1F)O2 (single isomer, unassigned) | nM | 26 |
| CC#CC(CC(=O)O)c1ccc2c(c1)CCC(c1cccc(-c3c(C)noc3C)c1)O2 (mixture of isomers) | nM | 151 |
| CC#CC(CC(=O)O)c1ccc2c(c1)CCC(c1nc(-c3cccnc3C(F)(F)F)ccc1F)O2 (mixture of isomers) | nM | 172 |
| Cc1cccc(C)c1-c1cccc(C2CCc3cc(C(CC(=O)O)c4ccccn4)ccc3O2)c1 (mixture of isomers) | nM | 734 |
| CC(C)=CC(CC(=O)O)c1ccc2c(c1)CCC(c1cccc(-c3c(C)cccc3C)c1)O2 (mixture of isomers) | nM | 69 |

* * *

- experimental_target: UniProt:O14842
- test_name: FLIPR assay (agonist-induced calcium mobilization)
- condition_info: CHONFAT, read-out: Human FLIPR EC50, nM or % activation (% activation values)
activation at 10 µM for assorted compounds
recorded_metric: activation at 10 µM (%)

| compound | recorded_metric | reported |
| --- | --- | --- |
| Cc1cccc(C)c1-c1cccc(C2CC(=O)c3cc(CCC(=O)O)ccc3O2)c1 (racemic) [Example 7] | activation at 10 µM | 70 |
| COc1cccc(C(CC(=O)O)c2ccc3c(c2)CCC(c2cccc(-c4c(C)cccc4C)c2)O3)c1 (centres unmarked) [Example 46] | activation at 10 µM | 41 |
| O=C(O)CCc1ccc2c(c1)CCC(c1ccccc1)O2 (racemic) [Example 2] | activation at 10 µM | 79 |
| COc1ccc(C(CC(=O)O)c2ccc3c(c2)CCC(c2cccc(-c4c(C)cccc4C)c2)O3)cc1 (centres unmarked) [Example 47] | activation at 10 µM | 61 |
| COc1ccccc1C(CC(=O)O)c1ccc2c(c1)CCC(c1cccc(-c3c(C)cccc3C)c1)O2 (centres unmarked) [Example 45] | activation at 10 µM | 12.5 |
